Species on record: Rattus norvegicus
protocol: Open TG-GATES - Regimen: Daily Repeat
Assay type: toxicity, organism-based, Sprague-Dawley
Design: regimen Daily Repeat, gender Male, age 6 weeks
studyConditions: in vivo, po, 0 mg/kg, […], tissue Plasma, route gavage, dose level Control, time 28 day

compound | AST
CC(C)(S)[C@@H](N)C(=O)O | 58.4 IU/L
O=C(N[C@H](CO)[C@H](O)c1ccc([N+](=O)[O-])cc1)C(Cl)Cl | 60 IU/L
C#C[C@]1(O)CC[C@H]2[C@@H]3CCc4cc(O)ccc4[C@H]3CC[C@@]21C | 58 IU/L
CN1C(=O)OC(C)(C)C1=O | 62.6 IU/L
CCSCC[C@H](N)C(=O)O | 65.2 IU/L
CCC(C)(C)C(=O)O[C@H]1C[C@@H](C)C=C2C=C[C@H](C)[C@H](CC[C@@H]3C[C@@H](O)CC(=O)O3)[C@H]21 | 57.6 IU/L
O=C(O)c1cccnc1 | 63.8 IU/L
CC(=O)Oc1cc(C(C)C)c(OCCN(C)C)cc1C | 81.5 IU/L
CC(=N)S [THIOACETAMIDE] | 63 IU/L
Nc1nc(N)c2nc(-c3ccccc3)c(N)nc2n1 | 67.4 IU/L
